Where do these numbers come from? They come from patent US20250179065A1.

Read-out record for Full length Human HDAC8 (Homo sapiens (Human)): IC50
OUTCOME_MEASURE: IC50

{"columns": ["COMPOUND", "OUTCOME_MEASURE", "RESULT"],
 "data": [
  ["O=C(NO)c1cnc2c(c1)CCN(C1CC3(CCCNC3)C1)C2 (single isomer, unassigned) [Compound 342]", "IC50", "10 to 100 µM"],
  ["CN1CCC2(CC1)CC(N1CCc3cc(C(=O)NO)cnc3C1)C2", "IC50", "1 to 10 µM"],
  ["O=C(NO)c1cnc2c(c1)CCN(C1CC3(CNC3)C1)C2", "IC50", "10 to 100 µM"],
  ["CN1CCC[C@]2(C1)C[C@H](N1CCc3cc(C(=O)NO)cnc3C1)C2 (single isomer, unassigned)", "IC50", "1 to 10 µM"],
  ["O=C(NO)c1cnc2c(c1)CCN(C1CC3(CCCCC3)C1)C2", "IC50", "10 to 100 µM"]
]}
